# assay_target: T1, 4H348-bN
# T1 chain: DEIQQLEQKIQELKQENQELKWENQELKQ
# method_description: two-hybrid library CCNG1;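 also: natural log of median RNA to DNA barcode read ratio; higher means stronger binding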
quantity_kind: interaction score
Numbers only.

In the examples that follow, each entry is paired with its recorded interaction score.
• DKNQQLEQENQELKQEIQELKWKIQELEQ [4H3277-bN] = -1.89
• DKIQQLKQEIQELEQENQELKWENQELKQ [4H2588-bN] = 1.49
• DKIQQLEQEIQELKQENQELEWKIQELKQ [4H2134-bN] = -0.138

Please examine the following record next.
Sample DKIQQLEQKNQELEQEIQELEWKIQELKQ [4H2438-bN] ; interaction score observed: -1.05
